Data origin: ChEMBL document CHEMBL5724801

- Tested on: HEK-293T
- TEST_PROTOCOL: Multiplex assay against HEK293T
- Format: toxicity, cell-based
- CONDITION_INFO: human, 48 h, 10 µM, compound concentration 10 uM
OBSERVABLE: Population Membrane Permeable-Phenotype (%)
// note: answer is a bare numeric in %

Example cases with answers are listed next.
compound=COc1cc(C(=O)N(CCCc2ccccc2)Cc2ccc(CC(=O)O)cc2)cc(OC)c1C system_tested=HEK-293T observed_result=1
compound="CCC(=O)OCC(=O)[C@@]1(OC(=O)CC)[C@@H](C)C[C@H]2[C@@H]3CCC4=CC(=O)C=C[C@]4(C)[C@@]3(Cl)[C@@H](O)C[C@@]21C [BECLOMETHASONE DIPROPIONATE]" system_tested=HEK-293T observed_result=0
compound=CC(C)(O)C(=O)N1CCN(c2ccc(C(F)(F)F)c(C3=C(c4c[nH]c5ccccc45)C(=O)NC3=O)c2)CC1 system_tested=HEK-293T observed_result=0
compound=Cc1cc(-c2ccc3c(c2)CC[C@H]3N2CC3(CCN(C(=O)Cc4cn5cc(C)sc5n4)CC3)C2)ncn1 system_tested=HEK-293T observed_result=0
compound=CCCOc1ccc2[nH]cc(C3=CCNCC3)c2n1.Cl system_tested=HEK-293T observed_result=0

Inquiry: Using the record for CC(=O)NCCc1c(Cc2ccccc2)[nH]c2ccccc12 , state its measured Population Membrane Permeable-Phenotype (%).
Reply text: 0

Inquiry: Using the record for CC(C)(C)c1ccc(CSc2cnn(C(C)(C)C)c(=O)c2Cl)cc1 , state its measured Population Membrane Permeable-Phenotype (%).
Reply text: 0

Inquiry: Using the record for Cl.Clc1ccc2nsnc2c1NC1=NCCN1 [TIZANIDINE HYDROCHLORIDE] , state its measured Population Membrane Permeable-Phenotype (%).
Reply text: 1

Inquiry: Using the record for CN(C)c1ccnc2sc3c(=O)n(N4CCCCCC4)cnc3c12 , state its measured Population Membrane Permeable-Phenotype (%).
Reply text: 0

Inquiry: Using the record for Cc1sc2c(c1C)C(c1ccc(Cl)cc1)=N[C@H](CC(=O)OC(C)(C)C)c1nnc(C)n1-2 , state its measured Population Membrane Permeable-Phenotype (%).
Reply text: 0
